Test system: THP-1 cells
Response field label: string, one of true (1) (GI50 strictly below 100 nM) or false (0).

INSERT INTO results (compound, group) VALUES
  ('Cc1ncccc1-n1nc(C)c2c1C(=O)N(c1cc(C)c(=O)n(C)c1)C2c1ccc(Cl)cc1 (centres unmarked) [Example 82]', 'false (0)'),
  ('Cn1cc(N2C(=O)c3c(c(C(F)(F)F)nn3C3CC3)C2c2ccc(Cl)cc2)cc(Cl)c1=O (centres unmarked) [Example 44]', 'false (0)'),
  ('CCn1nc(C)c2c1C(=O)N(c1cc(C)c(=O)n(C)c1)C2c1ccc(Cl)cc1F (centres unmarked) [Example 170]', 'true (1)');

-- ask Input CCc1nn(C2CC2)c2c1C(c1ccc(Cl)cc1)N(c1cc(OC)c3nnc(C)n3c1)C2=O (centres unmarked) [Example 84] ; condition: GI50 strictly below 100 nM. Does it hold?
-- reply true (1)

-- ask Please let me know if COc1ncccc1-n1nc(C)c2c1C(=O)N(c1cc(C)c3nnc(C)n3c1)C2c1ccc(F)cc1F (centres unmarked) [Example 173] shows GI50 below 100 nM.
-- reply true (1)

---

System: MV-4-11 cells
Hi all, reminder that labels come from GI50, split as range 1 (below 40 nM), range 2 (40 nM to below 200 nM), range 3 (200 nM or more)

Please review the entries below; each comes with its answer.
INSERT INTO measurements (compound, measurement_target, group) VALUES
  ('Cc1nn(-c2cncn2C)c2c1C(c1ccc(Cl)cc1)N(c1cc(C)c(=O)n(C)c1)C2=O (stereo not shown) [Example 83]', 'MV-4-11 cells', 'range 2'),
  ('Cc1nn(C2COC2)c2c1C(c1ccc(Cl)cc1)N(c1cc(C)c3nnc(C)n3c1)C2=O (stereo not shown) [Example 137]', 'MV-4-11 cells', 'range 1'),
  ('CNc1cc(N2C(=O)c3c(c(C)nn3C3CC3)C2c2ccc(Cl)cc2)nn2c(C)nnc12 (racemic) [Example 113]', 'MV-4-11 cells', 'range 2'),
  ('Cc1nn(C(C)C)c2c1C(c1ccc(F)cc1F)N(c1cc(C)c3nnc(C)n3c1)C2=O (stereo not shown) [Example 174]', 'MV-4-11 cells', 'range 1'),
  ('COc1ncc(-n2nc(C)c3c2C(=O)N(c2cc(Cl)c(=O)n(C)c2)C3c2ccc(Cl)cc2)c(OC)n1 (stereo not shown) [Example 53]', 'MV-4-11 cells', 'range 3');

-- ask Into which category would you place CCc1c2c(nn1CCO)C(=O)N(c1cc(C)c3onc(C)c3c1)C2c1ccc(Cl)cc1 (stereo not shown) [Example 80] ?
-- reply range 3

-- ask Which GI50 category applies to Cc1nn(C2CC2)c2c1C(c1ccc(Cl)cc1)N(c1cc(N(C)C(=O)OC(C)(C)C)c3nnc(C)n3n1)C2=O (stereo not shown) [Example 112] here?
-- reply range 3

-- ask Place this compound in its band: Cc1cc(N2C(=O)c3nn(C4COC4)c(C)c3C2c2ccc(Cl)cc2)cn(C)c1=O (stereo not shown) [Example 134]
-- reply range 2

-- ask Lab note: sort Cc1n[nH]c2c1C(c1ccc(F)cc1F)N(c1cc(C)c3nnc(C)n3c1)C2=O (stereo not shown) [Example 172] into the matching GI50 band.
-- reply range 2

-- ask Class? Entry: Cc1nn(C2CC2)c2c1[C@H](c1ccc(Cl)cc1)N(c1cc(C)c3nnc(C)n3n1)C2=O [Example 123]
-- reply range 3

-- ask Input Cc1cc(N2C(=O)c3nn(C4CN(C)C4)c(C)c3C2c2ccc(Cl)cc2)cn2c(C)nnc12 (stereo not shown) [Example 158] ; output its category
-- reply range 1

-- ask State the class of the compound shown: Cc1cc(N2C(=O)c3nn(C(C)C)c(C)c3C2c2ccc(Cl)cc2)cn(C)c1=O (stereo not shown) [Example 64]
-- reply range 1

---

System: THP-1 cells
Property Name: GI50 (nM)
Use nM as the unit, but write only the number.

Consider the following illustrative entries.
INSERT INTO results (molecule, property_name, recorded_result) VALUES
  ('Cc1nn(C(C)C)c2c1C(c1ccc(Cl)cc1)N(c1cc(C)c(=O)n(C)c1)C2=O (stereo not drawn)', 'GI50', 61.9),
  ('COc1ncc(-n2nc3c(c2C(C)C)C(c2ccc(Cl)cc2)N(c2cc(C)c4nnc(C)n4c2)C3=O)c(OC)n1 (stereo not drawn)', 'GI50', 20.3);

Please turn your attention to the following entry.
-- ask Given Cc1nn(C2CC2)c2c1C(c1ccc(Cl)cc1F)N(c1cc(C)c(=O)n(C)c1)C2=O (stereo not drawn) , state its recorded GI50.
-- reply 112

The reported measurements were obtained from patent US20160095843A1.
